Data provenance: the supplement of paper PMC12764529

# TEST PROTOCOL: folding stability dG unfold from chymotrypsin proteolysis; higher = more stable
Listing of entries alongside the reported folding stability dG unfold.
Number in kcal/mol, nothing else.

Some entries whose results are on file:
>>> endpoint_value("SAGGPRVFRLTYLDPETGEPRELRFSLPVPPAPDFISVYVNVPPELARRIAELLRELYPDKPVLVHRSAGGS [r8_437_TrMRF]")
2.97
>>> endpoint_value("SAGGSAGGSAGDWIKFEYTFKWNFFDPDGDLLMNMTVRVTIEIPIPPVPKPVKPSPNDDNSAGGSAGGSAGG [r17_325_TrROS]")
5.4
>>> endpoint_value("SAGGSAGGSKKDPEDNPEQAKPPIPPIRVEIYPPDGQPETFEFHSLEEITEWIQERGYTVKIESAGGSAGGS [r12_244_TrROS]")
1.12

// fetch folding stability dG unfold given entry SPIKLPIVFPNLPKEEAKEAVEALAKELEEKYGFKIEVEVEELRAPDGKLVAVVAIATIEKFGEEDKLLFSA [r9_21_TrMRF]
1.12

Read off the recorded folding stability dG unfold for SAGGSAGGSAGGMYRVEIETKGNKKVYIFPNLSPEELAKFLEDPKVVSYKVEKLSPEELESAGGSAGGSAGG [r7_502_JUSTAS]
2.34

Indicate its recorded folding stability dG unfold; the sequence in question is SMLYRVTTVVVRGDRPLVIPVLADSLEAFLEEAREAIPPELREELPPDAVVRVFVEPVPAVVPEPGEPLPSA [r9_111_TrMRF]
2.03

Tell us which folding stability dG unfold value is on record for SAGGSAGGSAAITIPVPPGETVTIKIEIEMTVPPNQRNPDGQRMKPGQKVRMEVTFTFRVDGSAGGSAGGSA [r18_450_TrROS]
4.63

---

Catalogue of folding stability dG unfold readings, one per entry.
# TEST PROTOCOL: folding stability dG unfold from trypsin proteolysis; higher = more stable
Kindly format the answer as number then unit.

Here is how some sequences turned out for folding stability dG unfold.
>>> endpoint_value("SAGGSAGGSAGKAKIEVVEVDKNGKVRLKIKLENGEVKEIENADEITINGKKIKVEKIEPSAGGSAGGSAGG [r11_1017_TrROS_Hall]")
"-0.311 kcal/mol"
>>> endpoint_value("SAGGSMSLEGVSTVSEEKFPEKPTTLVPLTYPDGTTVEANRTLDPVTGKWTLPVTTPDGTVVVVDESAGGSA [r2_490_JUSTAS]")
"1.34 kcal/mol"
>>> endpoint_value("SAGGSAGGSAGGMNPVSKVTKHSGPNGQVTETTTYFDPASGKTTVTYTDLVTGTTSTISTSAGGSAGGSAGG [r11_1063_JUSTAS]")
"-0.579 kcal/mol"
>>> endpoint_value("SAGGSAGGSAGGGMESKTTVTEEFSPEEVKTVTTVTTYPDGSVTETPENVKVPPGALAGSAGGSAGGSAGGS [r10_280_JUSTAS]")
"0.1 kcal/mol"
>>> endpoint_value("SAGGSAGGSAGGKKKYIVVKVKVEVDENGNVTITLPNGKKITIPKEKVEVKPDGYLVIKLSAGGSAGGSAGG [r7_684_TrROS_Hall]")
"1.98 kcal/mol"

# return recorded folding stability dG unfold for input SAGGSAWIRINSPEMVEAFAKELKDEGWKLKDVDVQRDPNNGNVWFEIPIEHPNNGKKRELEIWFRSAGGSA [r15_123_TrROS]
0.368 kcal/mol

Entry SAGKPVKVTLNVVRLPGTGELVVFAEITYPDGSTAYAVARADLATGTVHVKLFDPNGKLLAELTVTLKPSAG [r14_524_TrMRF] needs its folding stability dG unfold filled in; supply it.
3.64 kcal/mol
